Test: AUC in rat at 10 mg/kg, po measured after 24 hrs by LC/MS method
Assay type: ADME, organism-based
Parameters: time < 24 hr, dose 10 mg/kg, route oral
Conditions: in vivo
outcomeMeasure: AUC at 24 h (µM·h)
Kindly answer with a numeric value in µM·h, unit omitted.

compound	unit	measuredNumber
CCc1ccc([C@@H]2Oc3cc(-c4cnc([C@@H]5CCCN5C(=O)[C@@H](NC(=O)OC)C(C)C)[nH]4)cc(F)c3-c3cc4cc(-c5cnc([C@@H]6CCCN6C(=O)[C@@H](NC(=O)OC)C(C)C)[nH]5)ccc4n32)s1	µM·h	0.7
CCCc1ncc(C2Oc3cc(-c4cnc([C@@H]5CCCN5C(=O)[C@@H](NC(=O)OC)C(C)C)[nH]4)cc(F)c3-c3cc4cc(-c5cnc([C@@H]6CCCN6C(=O)[C@@H](NC(=O)OC)C(C)C)[nH]5)ccc4n32)s1 (some centres undefined)	µM·h	0.8
COC(=O)N[C@H](C(=O)N1CCC[C@H]1c1ncc(-c2cc(F)c3c(c2)O[C@@H](c2cnc(C4CC4)s2)n2c-3cc3cc(-c4cnc([C@@H]5CCCN5C(=O)[C@@H](NC(=O)OC)C(C)C)[nH]4)ccc32)[nH]1)C(C)C	µM·h	0.4

Turning to the following compound.
input: Provide only the value of recorded AUC at 24 h for COC(=O)N[C@H](C(=O)N1CCC[C@H]1c1ncc(-c2cc(F)c3c(c2)OC(c2ccc(C4CC4)s2)n2c-3cc3cc(-c4cnc([C@@H]5CCCN5C(=O)[C@@H](NC(=O)OC)C(C)C)[nH]4)ccc32)[nH]1)C(C)C (some centres undefined)
output: 1.1

----------
Listed next: entries and their corresponding EC90.
System: Nonstructural protein 5A (Hepatitis C virus), Q5L478 [Y93H]
Sequence (Q5L478 entry or part of it Y93H): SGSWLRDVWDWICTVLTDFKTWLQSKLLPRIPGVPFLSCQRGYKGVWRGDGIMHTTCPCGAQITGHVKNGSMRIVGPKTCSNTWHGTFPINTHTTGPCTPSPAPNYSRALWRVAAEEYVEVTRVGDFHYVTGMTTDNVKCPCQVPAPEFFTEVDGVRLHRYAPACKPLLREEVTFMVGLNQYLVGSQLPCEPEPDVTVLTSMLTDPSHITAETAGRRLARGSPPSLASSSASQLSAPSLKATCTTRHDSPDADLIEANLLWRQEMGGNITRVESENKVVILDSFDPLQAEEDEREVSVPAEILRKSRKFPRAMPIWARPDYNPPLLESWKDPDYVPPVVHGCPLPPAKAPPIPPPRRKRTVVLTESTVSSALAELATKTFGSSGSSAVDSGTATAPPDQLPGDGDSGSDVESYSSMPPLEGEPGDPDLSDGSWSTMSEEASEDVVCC
Experiment: Inhibition of HCV genotype-1a NS5A Y93H mutant infected in human HuH7 cells by luciferase reporter gene assay
Type: cell-based
Conditions: Hepatitis C virus subtype 1a; Huh-7
Your answer is read as nM, so omit the unit and give the number.

compound	outcomeMeasure	unit	measuredNumber
COC(=O)N[C@H](C(=O)N1CCC[C@H]1c1ncc(-c2cc(F)c3c(c2)OC(c2cnc(OC)s2)n2c-3cc3cc(-c4cnc([C@@H]5CCCN5C(=O)[C@@H](NC(=O)OC)C(C)C)[nH]4)ccc32)[nH]1)C(C)C (some centres undefined)	EC90	nM	0.035
COC(=O)N[C@H](C(=O)N1CCC[C@H]1c1ncc(-c2cc(F)c3c(c2)OC(c2csc(C4CC4)c2)n2c-3cc3cc(-c4cnc([C@@H]5CCCN5C(=O)[C@@H](NC(=O)OC)C(C)C)[nH]4)ccc32)[nH]1)C(C)C (some centres undefined)	EC90	nM	0.26
CCCc1ncc(C2Oc3cc(-c4cnc([C@@H]5CCCN5C(=O)[C@@H](NC(=O)OC)C(C)C)[nH]4)cc(F)c3-c3cc4cc(-c5cnc([C@@H]6C[C@H]7C[C@H]7N6C(=O)[C@@H](NC(=O)OC)C(C)C)[nH]5)ccc4n32)s1 (some centres undefined)	EC90	nM	0.021

Lab note: next compound to report on.
input: Identify measured EC90 corresponding to COC(=O)N[C@H](C(=O)N1CCC[C@H]1c1ncc(-c2cc(F)c3c(c2)OC(c2ccc(C4CC4)s2)n2c-3cc3cc(-c4cnc([C@@H]5CCCN5C(=O)[C@@H](NC(=O)OC)C(C)C)[nH]4)ccc32)[nH]1)C(C)C (some centres undefined)
output: 0.11

----------
System: Nonstructural protein 5A (Hepatitis C virus), Q5L478 [UNDEFINED MUTATION]
Assay: Inhibition of HCV genotype-1a NS5A L31V mutant infected in human HuH7 cells by luciferase reporter gene assay
Format: cell-based
Conditions: Hepatitis C virus subtype 1a; Huh-7
outcomeMeasure: EC90 (nM)
Number in nM, nothing else.

Some compounds with recorded EC90:
compound	measuredNumber
CCCc1ncc(C2Oc3cc(-c4cnc([C@@H]5CCCN5C(=O)[C@@H](NC(=O)OC)C(C)C)[nH]4)cc(F)c3-c3cc4cc(-c5cnc([C@@H]6CCCN6C(=O)[C@@H](NC(=O)OC)C(C)C)[nH]5)ccc4n32)s1 (stereo partly specified)	0.02
COC(=O)N[C@H](C(=O)N1CCC[C@H]1c1ncc(-c2cc(F)c3c(c2)OC(c2cnns2)n2c-3cc3cc(-c4cnc([C@@H]5CCCN5C(=O)[C@@H](NC(=O)OC)C(C)C)[nH]4)ccc32)[nH]1)C(C)C (stereo partly specified)	0.14
CCc1ccc([C@@H]2Oc3cc(-c4cnc([C@@H]5CCCN5C(=O)[C@@H](NC(=O)OC)C(C)C)[nH]4)cc(F)c3-c3cc4cc(-c5cnc([C@@H]6CCCN6C(=O)[C@@H](NC(=O)OC)C(C)C)[nH]5)ccc4n32)s1	0.067
COCc1ccc(C2Oc3cc(-c4cnc([C@@H]5CCCN5C(=O)[C@@H](NC(=O)OC)C(C)C)[nH]4)cc(F)c3-c3cc4cc(-c5cnc([C@@H]6CCCN6C(=O)[C@@H](NC(=O)OC)C(C)C)[nH]5)ccc4n32)s1 (stereo partly specified)	0.049
COC(=O)N[C@H](C(=O)N1CCC[C@H]1c1ncc(-c2cc(F)c3c(c2)OC(c2sc(C(C)C)nc2C)n2c-3cc3cc(-c4cnc([C@@H]5CCCN5C(=O)[C@@H](NC(=O)OC)C(C)C)[nH]4)ccc32)[nH]1)C(C)C (stereo partly specified)	0.36

# ---- query compound ----
input: Give a short answer stating reported EC90 for COC(=O)N[C@H](C(=O)N1CCC[C@H]1c1ncc(-c2cc(F)c3c(c2)OC(c2cc(C(C)C)no2)n2c-3cc3cc(-c4cnc([C@@H]5CCCN5C(=O)[C@@H](NC(=O)OC)C(C)C)[nH]4)ccc32)[nH]1)C(C)C (stereo partly specified) .
output: 0.056

----------
Test system: Huh-7
Experiment: Inhibition of HCV genotype-1a NS5A infected in human HuH7 cells by luciferase reporter gene assay
Assay type: cell-based
Details: Hepatitis C virus subtype 1a
API: label(entry) gives Yes if the entry's EC90 is strictly smaller than 7 pM; on equality or larger values it gives No.

compound	groupLabel
COC(=O)N[C@H](C(=O)N1CCC[C@H]1c1ncc(-c2cc(F)c3c(c2)OC(c2ccc(CC(F)(F)F)s2)n2c-3cc3cc(-c4cnc([C@@H]5CCCN5C(=O)[C@@H](NC(=O)OC)C(C)C)[nH]4)ccc32)[nH]1)C(C)C (some centres undefined)	Yes
COC(=O)N[C@H](C(=O)N1CCC[C@H]1c1ncc(-c2cc(F)c3c(c2)OC(c2ccc(C(=O)N(C)C)s2)n2c-3cc3cc(-c4cnc([C@@H]5CCCN5C(=O)[C@@H](NC(=O)OC)C(C)C)[nH]4)ccc32)[nH]1)C(C)C (some centres undefined)	No
COC(=O)N[C@H](C(=O)N1CCC[C@H]1c1ncc(-c2cc(F)c3c(c2)O[C@@H](c2ccc4c(c2)OCCC4)n2c-3cc3cc(-c4cnc([C@@H]5CCCN5C(=O)[C@@H](NC(=O)OC)C(C)C)[nH]4)ccc32)[nH]1)C(C)C	Yes
COC(=O)N[C@H](C(=O)N1CCC[C@H]1c1ncc(-c2cc(F)c3c(c2)OC(c2cc(C)c(C4CC4)s2)n2c-3cc3cc(-c4cnc([C@@H]5CCCN5C(=O)[C@@H](NC(=O)OC)C(C)C)[nH]4)ccc32)[nH]1)C(C)C (some centres undefined)	Yes
CCOc1cccc([C@@H]2Oc3cc(-c4cnc([C@@H]5CCCN5C(=O)[C@@H](NC(=O)OC)C(C)C)[nH]4)ccc3-c3cc4cc(-c5cnc([C@@H]6CCCN6C(=O)[C@@H](NC(=O)OC)C(C)C)[nH]5)ccc4n32)c1	No

input: Does CCc1ncc(C2Oc3cc(-c4cnc([C@@H]5CCCN5C(=O)[C@@H](NC(=O)OC)C(C)C)[nH]4)cc(F)c3-c3cc4cc(-c5cnc([C@@H]6C[C@H]7C[C@H]7N6C(=O)[C@@H](NC(=O)OC)C(C)C)[nH]5)ccc4n32)s1 (some centres undefined) have EC90 strictly under 7 pM?
output: Yes

input: Consider the compound COC(=O)N[C@H](C(=O)N1CCC[C@H]1c1ncc(-c2cc(F)c3c(c2)OC(c2cnc(C(C)C)s2)n2c-3cc3cc(-c4cnc([C@@H]5C[C@H]6C[C@H]6N5C(=O)[C@@H](NC(=O)OC)C(C)C)[nH]4)ccc32)[nH]1)C(C)C (some centres undefined) . Is its EC90 strictly less than 7 pM?
output: Yes

input: Given the entry COC(=O)N[C@H](C(=O)N1CCC[C@H]1c1ncc(-c2cc(F)c3c(c2)OC(c2cnc(C4(C)CC4)s2)n2c-3cc3cc(-c4cnc([C@@H]5CCCN5C(=O)[C@@H](NC(=O)OC)C(C)C)[nH]4)ccc32)[nH]1)C(C)C (some centres undefined) , would its reported EC90 be below 7 pM?
output: No
